All figures here come from patent US12059422B2.

Biological target: PI3K beta (Homo sapiens)
Construct: purchased Millipore, Billerica, MA, USA
Sequence (P42338 whole entry, species assumed): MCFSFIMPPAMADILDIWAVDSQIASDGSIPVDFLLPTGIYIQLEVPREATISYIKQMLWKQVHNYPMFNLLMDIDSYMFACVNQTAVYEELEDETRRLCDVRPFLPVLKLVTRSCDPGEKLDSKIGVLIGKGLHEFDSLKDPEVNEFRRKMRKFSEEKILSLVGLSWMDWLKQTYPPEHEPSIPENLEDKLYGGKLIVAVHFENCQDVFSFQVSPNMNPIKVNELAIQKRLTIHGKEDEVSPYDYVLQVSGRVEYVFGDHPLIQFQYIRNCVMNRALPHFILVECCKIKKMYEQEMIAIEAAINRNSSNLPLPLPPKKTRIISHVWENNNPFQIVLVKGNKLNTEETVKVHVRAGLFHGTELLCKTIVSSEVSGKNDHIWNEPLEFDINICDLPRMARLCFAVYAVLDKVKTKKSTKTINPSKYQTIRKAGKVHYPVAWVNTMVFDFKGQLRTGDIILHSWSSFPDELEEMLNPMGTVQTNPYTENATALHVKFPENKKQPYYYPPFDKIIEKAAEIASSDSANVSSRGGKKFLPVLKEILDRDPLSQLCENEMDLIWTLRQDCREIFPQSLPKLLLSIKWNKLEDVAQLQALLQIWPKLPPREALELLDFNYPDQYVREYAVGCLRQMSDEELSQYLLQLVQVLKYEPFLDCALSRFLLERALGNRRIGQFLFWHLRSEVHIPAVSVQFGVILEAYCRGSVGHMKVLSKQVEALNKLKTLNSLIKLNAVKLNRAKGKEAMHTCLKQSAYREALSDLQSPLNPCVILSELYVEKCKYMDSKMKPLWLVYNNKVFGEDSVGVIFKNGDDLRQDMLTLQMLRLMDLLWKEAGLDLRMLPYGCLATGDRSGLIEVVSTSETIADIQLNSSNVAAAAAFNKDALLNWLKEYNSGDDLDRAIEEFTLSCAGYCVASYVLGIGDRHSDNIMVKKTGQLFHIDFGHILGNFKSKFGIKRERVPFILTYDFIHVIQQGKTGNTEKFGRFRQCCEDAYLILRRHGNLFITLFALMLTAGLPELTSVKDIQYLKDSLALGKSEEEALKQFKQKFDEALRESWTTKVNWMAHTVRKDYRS
Sequence (P27986 whole entry partner, species assumed): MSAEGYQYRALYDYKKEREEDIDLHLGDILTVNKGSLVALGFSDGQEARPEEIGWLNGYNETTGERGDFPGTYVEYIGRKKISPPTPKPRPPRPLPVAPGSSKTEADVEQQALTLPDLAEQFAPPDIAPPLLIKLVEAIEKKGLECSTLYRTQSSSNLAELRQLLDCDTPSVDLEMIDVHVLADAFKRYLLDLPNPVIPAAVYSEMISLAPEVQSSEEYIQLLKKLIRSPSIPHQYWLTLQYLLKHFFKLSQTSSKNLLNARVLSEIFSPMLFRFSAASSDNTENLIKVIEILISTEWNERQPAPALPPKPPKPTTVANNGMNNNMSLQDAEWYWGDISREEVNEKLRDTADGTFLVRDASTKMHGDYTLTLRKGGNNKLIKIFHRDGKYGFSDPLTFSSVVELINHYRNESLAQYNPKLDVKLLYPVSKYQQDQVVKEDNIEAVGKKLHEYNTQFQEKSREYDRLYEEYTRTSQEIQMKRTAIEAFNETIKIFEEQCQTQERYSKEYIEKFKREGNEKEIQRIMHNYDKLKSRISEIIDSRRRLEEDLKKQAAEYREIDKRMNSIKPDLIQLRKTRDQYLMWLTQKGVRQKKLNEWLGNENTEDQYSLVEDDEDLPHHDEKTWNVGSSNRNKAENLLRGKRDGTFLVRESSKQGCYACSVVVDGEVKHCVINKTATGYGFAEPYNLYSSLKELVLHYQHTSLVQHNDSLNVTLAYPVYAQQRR
Experiment: Luciferase-based luminescence assay (ADP Glo), PI3K beta enzymatic activity
Format: biochemical
Settings: ratio of enzymatic IC50 values, Table 1
readout type: α/β ratio

| compound | readout type | assay result |
| --- | --- | --- |
| CC(=O)N1CCC(c2ccccc2CC(C)(C)Nc2nc(N3CCOCC3)nc(-n3c(C(F)F)nc4ccccc43)n2)CC1 [Compound A72] | α/β ratio | A’ |
| CC(C)(Cc1ccccc1C1CCNCC1)Nc1nc(N2CCOCC2)nc(-n2c(C(F)F)nc3ccccc32)n1 [Compound A68] | α/β ratio | D’ |
| CN(C)CCCc1ccccc1CC(C)(C)Nc1nc(N2CCOCC2)nc(-n2c(C(F)F)nc3ccccc32)n1 [Compound A76] | α/β ratio | C’ |
